Target: Benzothiazepine site
Assay: Rat cortex binding, benzothiazepine site ([3H]diltiazem)
Settings: rat cortical homogenates; [3H]diltiazem 15 nM
pKi: −log10 of the molar value.
measured.metric: pKi

Lab note: O=C(Nc1ccc([N+](=O)[O-])cc1Cl)c1cc(Cl)ccc1O [Niclosamide] gave pKi of < 4.52

----------
System: L-type calcium channels (LTCCs)
Assay: Calcium flux (FLIPR) assay, Bay K8644-induced responses in rat primary cortical cultures
Type: cell-based
Details: holding [K+] 20 mM; read-out: EC50, activation of LTCCs (calcium flux)
measured.metric: EC50 (nM)
One number for each entry, in nM.

Lab note: COC(=O)C1=C(C)NC(C)=C([N+](=O)[O-])C1c1ccccc1C(F)(F)F (stereo not shown) gave EC50 of 204

----------
Molecular target: Benzothiazepine site
Experiment: Rat cortex binding, benzothiazepine site ([3H]diltiazem)
Details: [3H]diltiazem 15 nM, n = 4; read-out: IC50 positive control, benzothiazepine site binding
measured.metric: pIC50
Numbers only, as −log10 of the molar value.

Lab note: COc1ccc([C@@H]2Sc3ccccc3N(CCN(C)C)C(=O)[C@@H]2OC(C)=O)cc1 gave pIC50 of 7.37

----------
Target: CaV1.2 (Homo sapiens, UniProt Q13936)
Sequence (Q13936 1-2138 isoform Q13936-12): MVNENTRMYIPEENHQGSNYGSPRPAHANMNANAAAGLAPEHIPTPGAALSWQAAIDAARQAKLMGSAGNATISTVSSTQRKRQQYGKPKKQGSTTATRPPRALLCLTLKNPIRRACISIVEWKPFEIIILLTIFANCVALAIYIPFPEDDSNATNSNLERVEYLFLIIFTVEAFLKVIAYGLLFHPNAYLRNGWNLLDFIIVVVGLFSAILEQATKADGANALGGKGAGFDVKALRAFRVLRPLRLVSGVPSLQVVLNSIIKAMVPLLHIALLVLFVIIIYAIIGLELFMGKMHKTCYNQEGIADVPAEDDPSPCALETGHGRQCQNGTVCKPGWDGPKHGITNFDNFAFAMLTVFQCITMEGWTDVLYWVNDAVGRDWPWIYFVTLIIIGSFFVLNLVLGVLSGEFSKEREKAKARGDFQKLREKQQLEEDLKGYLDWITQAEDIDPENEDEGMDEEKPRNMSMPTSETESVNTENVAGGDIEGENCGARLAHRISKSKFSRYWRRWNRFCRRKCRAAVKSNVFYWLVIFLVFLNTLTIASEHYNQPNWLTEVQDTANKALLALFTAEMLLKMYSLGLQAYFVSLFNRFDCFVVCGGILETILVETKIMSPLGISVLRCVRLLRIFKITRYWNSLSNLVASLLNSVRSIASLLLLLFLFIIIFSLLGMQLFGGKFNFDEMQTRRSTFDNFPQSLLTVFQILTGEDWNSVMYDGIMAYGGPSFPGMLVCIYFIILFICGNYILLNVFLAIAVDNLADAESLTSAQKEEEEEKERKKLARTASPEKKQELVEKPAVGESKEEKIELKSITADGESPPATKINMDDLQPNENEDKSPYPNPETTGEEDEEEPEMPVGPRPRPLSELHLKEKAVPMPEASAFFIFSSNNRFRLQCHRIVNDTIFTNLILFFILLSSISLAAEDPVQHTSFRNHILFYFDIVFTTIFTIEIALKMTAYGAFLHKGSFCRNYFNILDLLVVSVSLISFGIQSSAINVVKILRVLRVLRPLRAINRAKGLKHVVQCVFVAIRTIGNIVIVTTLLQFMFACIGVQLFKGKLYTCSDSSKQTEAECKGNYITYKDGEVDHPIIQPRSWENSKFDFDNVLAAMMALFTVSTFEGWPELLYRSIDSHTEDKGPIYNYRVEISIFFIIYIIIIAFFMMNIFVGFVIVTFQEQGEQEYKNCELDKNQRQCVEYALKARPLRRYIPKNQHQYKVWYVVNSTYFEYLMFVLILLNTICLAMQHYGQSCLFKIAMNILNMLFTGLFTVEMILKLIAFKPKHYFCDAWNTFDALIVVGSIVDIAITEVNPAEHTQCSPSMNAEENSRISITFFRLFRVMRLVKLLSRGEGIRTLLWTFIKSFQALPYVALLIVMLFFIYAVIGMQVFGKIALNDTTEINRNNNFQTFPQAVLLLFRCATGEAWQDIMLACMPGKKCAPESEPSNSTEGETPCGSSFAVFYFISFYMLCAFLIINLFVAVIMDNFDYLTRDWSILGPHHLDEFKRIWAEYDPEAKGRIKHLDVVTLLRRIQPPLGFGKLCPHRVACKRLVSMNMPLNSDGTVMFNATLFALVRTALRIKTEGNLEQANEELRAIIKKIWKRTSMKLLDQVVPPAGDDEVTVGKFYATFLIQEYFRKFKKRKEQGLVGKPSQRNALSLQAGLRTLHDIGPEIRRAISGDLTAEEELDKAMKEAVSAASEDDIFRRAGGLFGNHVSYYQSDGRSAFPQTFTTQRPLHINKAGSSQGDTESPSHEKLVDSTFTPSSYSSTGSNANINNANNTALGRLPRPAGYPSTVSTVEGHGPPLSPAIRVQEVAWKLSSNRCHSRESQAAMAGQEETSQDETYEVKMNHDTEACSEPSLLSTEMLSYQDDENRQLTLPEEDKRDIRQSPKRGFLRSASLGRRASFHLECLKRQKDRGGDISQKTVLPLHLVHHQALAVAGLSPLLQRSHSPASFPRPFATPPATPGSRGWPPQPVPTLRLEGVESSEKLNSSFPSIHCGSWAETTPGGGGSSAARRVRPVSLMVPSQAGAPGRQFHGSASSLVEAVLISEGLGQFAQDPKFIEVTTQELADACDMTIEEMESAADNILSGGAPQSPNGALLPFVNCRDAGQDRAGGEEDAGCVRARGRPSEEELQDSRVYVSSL
Assay: in vitro
Details: pH 7.4
measured.metric: inhibition at 3 µM

Lab note: CN1CCC(=C2c3ccccc3C=Cc3ccccc32)CC1 gave inhibition at 3 µM of 52.3%

The measurements presented in this section are drawn from paper PMC7801380.
